Reported Kd is given for each of the following molecules.
- Target Or Test System: BRD4 bromodomains (Homo sapiens)
- Construct: fused on or other part: T7 phage capsid protein (phage-display fusion; the phage DNA is read out by qPCR)
- Measurement Description: BROMOscan bromodomain competition binding assay (DiscoveRx)
- Settings: Kd from 11 compound concentrations ranging from 0 to 10 μM, read-out: BROMOscan Relative Activity
- Description: Bromodomain assays were conducted to measure interactions between certain compounds and bromodomains. The assays were conducted according to BROMOscan protocol from Discover Rx. Briefly, BRD4 bromodomains expressed as a fusion capsid protein of T7 phage were bound to acetylated peptide ligand on a solid phase and competition bindings were performed. […] The bromodomain concentration in the eluates was measured by qPCR. […]

Some entries whose results are on file:
| Molecule | Data Value |
| --- | --- |
| CNC(=O)C1CCN(c2ncnc3ccc(-c4c(C)noc4C)cc23)CC1 [Example 270] | < 0.5 µM |
| Cc1noc(C)c1-c1ccc2nc(C(=O)N[C@H]3CC[C@H](O)CC3)nc(NCc3cccc(Cl)c3)c2c1 [Example 250] | < 0.5 µM |
| Cc1noc(C)c1-c1ccc2nc(C(=O)NCC3CC(F)(F)C3)nc(NCc3cccc(Cl)c3)c2c1 [Example 256] | 0.5 to 5 µM |

Would you kindly look at the next entry?
Form: item Cc1noc(C)c1-c1ccc2nc(-c3ccc(CO)s3)nc(N3CCOC[C@@H]3c3ccccc3)c2c1 [Example 323] ; test system BRD4 bromodomains (Homo sapiens); Kd: 0.5 to 5 µM

---

Reported pKd is given for each of the following compounds.
- Target Or Test System: BRD4 bromodomains (Homo sapiens, UniProt O60885)
- Construct: fused on or other part: T7 phage capsid protein (phage-display fusion; the phage DNA is read out by qPCR)
- Measurement Description: BROMOscan bromodomain competition binding assay (DiscoveRx)
- Settings: Kd from 11 compound concentrations ranging from 0 to 10 μM, read-out: BROMOscan Relative Activity
pKd: −log10 of the molar value.

Some entries whose results are on file:
| Item Smiles | pKd |
| --- | --- |
| Cc1csc(CNc2nc(N3CCN(CCN(C)C)CC3)nc3ccc(-c4c(C)noc4C)cc23)c1 | > 6.30 |
| Cn1cc(-c2ccc3nc(-c4cnn(CC(C)(C)O)c4)nc(NCc4cccc(Cl)c4)c3c2)ccc1=O | > 6.30 |
| Cc1noc(C)c1-c1ccc2nc(N3CCN(CCN(C)C)CC3)nc(NCc3ccc(F)cc3)c2c1 | 5.30 to 6.30 |

Would you kindly look at the next entry?
Form field pKd, entry "CNC(=O)CN1CCN(c2nc(NCc3cccc(Cl)c3)c3cc(-c4ccc(=O)n(C)c4)ccc3n2)CC1" : > 6.30

---

- Target Or Test System: BRD4 bromodomains (Homo sapiens)
- Construct: fused on or other part: T7 phage capsid protein (phage-display fusion; the phage DNA is read out by qPCR)
- Measurement Description: BROMOscan bromodomain competition binding assay (DiscoveRx)
- Settings: Kd from 11 compound concentrations ranging from 0 to 10 μM, read-out: BROMOscan Relative Activity
pKd: −log10 of the molar value.
Parameter Measured: pKd

Some entries whose results are on file:
| Molecule | Target Or Test System | pKd |
| --- | --- | --- |
| CN(C)CCN1CCN(c2nc(NCc3cncc(Cl)c3)c3cc(-c4ccc(=O)n(C)c4)ccc3n2)CC1 [Example 124] | BRD4 bromodomains (Homo sapiens) | > 6.30 |
| Cc1noc(C)c1-c1ccc2nc(N3CCC4(CCC(=O)N4)CC3)nc(N3CCOC[C@@H]3c3ccccc3)c2c1 [Example 314] | BRD4 bromodomains (Homo sapiens) | > 6.30 |
| CNC(=O)C1CCN(c2nc(N3CCN(CCN(C)C)CC3)nc3ccc(-c4c(C)noc4C)cc23)CC1 [Example 267] | BRD4 bromodomains (Homo sapiens) | > 6.30 |

Would you kindly look at the next entry?
Form field pKd, entry COCCn1cc(-c2nc(NCc3cccc(Cl)c3)c3cc(-c4c(C)noc4C)ccc3n2)cn1 [Example 58] : > 6.30
